Test: Quantitative High-Throughput drug screen in 47 multiple myeloma cell lines against the NCATS MIPE library collection: ARD_JJKsccE7 cell viability assay (AID 1918929;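 on viability: 100% = DMSO-only wells and 0% = media-only wells without cells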)
Conditions: ARD myeloma cell line viability, CellTiter-Glo, 48 h; series mostly up to 45.8 µM
Source text: PI: Beverly A. Mock Ph.D. Laboratory of Cancer Biology and Genetics, Center for Cancer Research, National Cancer Institute, National Institute of Health, Bethesda, Maryland […] 5; Detector; 425V; Luminescence; Viewlux PerkinElmer. […] 1. […] Briefly, the corresponding myeloma cell lines were screened in 1,536-well plates with 500 cells, 5-uL per well for inhibition of cell viability (assessed by measuring ATP levels with CellTiterGlo). […]
Results filed as inconclusive are left out. Active and inactive are the calls of the source. The call rests on the fitted dose curve; in most records, active means well fitted cell-killing curve with a large enough effect; inconclusive means small, poorly fitted or top-dose-only effect, or effect the other way; inactive means no such curve, though single readings can be large or run the other way. Peptide text beside a SMILES is read from it.
Labels: 1 for active, 0 for inactive

Compound | Classification
Cc1cccc(CN2CCN(C(c3ccccc3)c3ccc(Cl)cc3)CC2)c1 (centres undefined) | 1
CN(C)c1ccc(O)c2c1C[C@H]1C[C@H]3[C@H](N(C)C)C(=O)C(C(N)=O)=C(O)[C@@]3(O)C(=O)C1=C2O | 0
O=C(CS(=O)Cc1ccco1)NCC=CCOc1cc(CN2CCCCC2)ccn1 (centres undefined) | 0
O=C(O)c1cn(-c2ccc(F)cc2)c2cc(N3CCNCC3)c(F)cc2c1=O | 0
O=C(O)CCNC(=O)c1ccc(N=Nc2ccc(O)c(C(=O)O)c2)cc1 | 0
Cc1nc(Nc2ncc(C(=O)Nc3c(C)cccc3Cl)s2)cc(N2CCN(CCO)CC2)n1 | 1
CCOc1cc(CC(=O)N[C@@H](CC(C)C)c2ccccc2N2CCCCC2)ccc1C(=O)O | 0
COC(=O)[C@H](Cc1ccccc1)NC(=O)[C@@H](N)CC(=O)O (H-Asp-Phe-OMe) | 0
CC1(C)NC(=O)N(c2ccc([N+](=O)[O-])c(C(F)(F)F)c2)C1=O | 0
